- Test system: 885724-159-R-J1-PDC KRAS PDC multicell spheroid viability
- Test details: Anticancer human tumor 885724-159-R-J1-PDC patient-derived pancreatic adenocarcinoma cell line growth inhibition [KRAS2]
- Particulars: second compound 0.316 µM; first compound 0.001 µM; stronger effect = lower value
- Text: Multicellular complex tumor spheroid response to RAS pathway inhibitors in combination with a targeted agents in patient-derived cell lines with oncogenic KRAS variants from multiple cancer types A high-throughput screen of multi-cell type tumor spheroids was designed to identify active combinations of targeted small molecules and KRAS pathway inhibitors. […] Compounds. […] If the clinical Cmax for an agent had not been determined, the highest concentration tested was 10 microM. […]
Quantity kind: viability, T/C (%)
Only the number, expressed in %, is required.

Here's what some known entries look like.
| Compound | Test system | Observed value |
| --- | --- | --- |
| Cn1ncnc1[C@H]1c2n[nH]c(=O)c3cc(F)cc(c23)N[C@@H]1c1ccc(F)cc1 + CNCc1ccccc1-c1csc(C(C)Nc2nc(C)nc3cc(OC)c(OC)cc23)c1 | 885724-159-R-J1-PDC KRAS PDC multicell spheroid viability | 89.2 |
| CC(=O)Nc1cccc(-n2c(=O)n(C3CC3)c(=O)c3c(Nc4ccc(I)cc4F)n(C)c(=O)c(C)c32)c1 + C=CC(=O)N1CCN(c2nc(=O)n(-c3c(C)ccnc3C(C)C)c3nc(-c4c(O)cccc4F)c(F)cc23)C(C)C1 | 885724-159-R-J1-PDC KRAS PDC multicell spheroid viability | 54.6 |
| CC(=O)Nc1cccc(-n2c(=O)n(C3CC3)c(=O)c3c(Nc4ccc(I)cc4F)n(C)c(=O)c(C)c32)c1 + COc1cc2nc(C)nc(NC(C)c3cc(N)cc(C(F)(F)F)c3)c2cc1OC1CCOC1 | 885724-159-R-J1-PDC KRAS PDC multicell spheroid viability | 46.4 |
| CN(C)C/C=C/C(=O)Nc1cc2c(Nc3ccc(F)c(Cl)c3)ncnc2cc1O[C@H]1CCOC1 + COc1cc2nc(C)nc(NC(C)c3cc(N)cc(C(F)(F)F)c3)c2cc1OC1CCOC1 | 885724-159-R-J1-PDC KRAS PDC multicell spheroid viability | 102 |
| CC(C)n1nc(-c2ccc3oc(N)nc3c2)c2c(N)ncnc21 + C=CC(=O)N1CCN(c2nc(OCC3CCCN3C)nc3c2CCN(c2cccc4cccc(C)c24)C3)CC1CC#N | 885724-159-R-J1-PDC KRAS PDC multicell spheroid viability | 73.8 |

-- ask Lookup: viability, T/C / 885724-159-R-J1-PDC KRAS PDC multicell spheroid viability / CN(C)C/C=C/C(=O)Nc1cc2c(Nc3ccc(F)c(Cl)c3)ncnc2cc1O[C@H]1CCOC1 + C=CC(=O)N1CCN(c2nc(=O)n(-c3c(C)ccnc3C(C)C)c3nc(-c4c(O)cccc4F)c(F)cc23)C(C)C1
-- reply 118

* * *

- Tested on: 885724-159-R-J1-PDC KRAS PDC multicell spheroid viability
- Test details: Anticancer human tumor 885724-159-R-J1-PDC cell line growth inhibition [KRAS2];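 note: spheroids exposed to agents for 7 days before readout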
- Particulars: second compound 3.16 µM; first compound 0.00316 µM; stronger effect = lower value
# if measured viability, T/C < 40%: 1  # else: 0

Example results:
| Compound | Assigned label |
| --- | --- |
| CC(C)n1nc(-c2ccc3oc(N)nc3c2)c2c(N)ncnc21 + CNCc1ccccc1-c1csc(C(C)Nc2nc(C)nc3cc(OC)c(OC)cc23)c1 | 1 |
| CC(C)n1nc(-c2ccc3oc(N)nc3c2)c2c(N)ncnc21 + C=CC(=O)N1CCN(c2nc(OCC3CCCN3C)nc3c2CCN(c2cccc4cccc(C)c24)C3)CC1CC#N | 0 |
| Cn1ncnc1[C@H]1c2n[nH]c(=O)c3cc(F)cc(c23)N[C@@H]1c1ccc(F)cc1 + COc1cc2nc(C)nc(NC(C)c3cc(N)cc(C(F)(F)F)c3)c2cc1OC1CCOC1 | 0 |

-- ask Hi there! Is viability, T/C for CCN1CCN(Cc2ccc(Nc3ncc(F)c(-c4cc(F)c5nc(C)n(C(C)C)c5c4)n3)nc2)CC1 + C=CC(=O)N1CCN(c2nc(OCC3CCCN3C)nc3c2CCN(c2cccc4cccc(C)c24)C3)CC1CC#N below 40%, do you know?
-- reply 0

-- ask Another compound to check: CC(=O)Nc1cccc(-n2c(=O)n(C3CC3)c(=O)c3c(Nc4ccc(I)cc4F)n(C)c(=O)c(C)c32)c1 + C=CC(=O)N1CCN(c2nc(=O)n(-c3c(C)ccnc3C(C)C)c3nc(-c4c(O)cccc4F)c(F)cc23)C(C)C1
-- reply 1

All figures here come from PubChem BioAssay AID1963861.
